Each recorded value in this set is attributed to patent US20230381328A1.

Test system: myasthenogenic antibody mAB 198
measurement_description: Peptide microarray mimotope screen, binding of mAB 198 to linear and cyclic peptides (fluorescence readout)
Design: species or system rat
condition: linear mimotopes; binding of mAB 198, relative fluorescent signal after normalization against background
Procedure: A custom peptide array of 30000 peptides was synthesized, with peptides of 7-19 amino acids in size; the peptides were based on substitution analyses of 176 AChR-MIR peptides with exchanges of each amino acid positions by each of the 20 common amino acids. […] As a readout, binding of mAB 198 to the 30000 linear and cyclic peptides was measured by fluorescence readout, and peptides were ranked according to their relative fluorescent signal after normalization against the background. […]
property_name: relative signal [%] (%)

[P] 72 (VRHRWNPAD) [compound 72]
[Q] 21 (QWIDVRLRFNP) [compound 21]
[R] 40 (LRINPADYG) [compound 40]
Qu. Put the substances in ascending order of relative signal [%]. Please respond with the labels ordered as the question requires.
Ans. P, R, Q
(P: 8.1%, R: 12.6%, Q: 20.1%)

[A] 80 (RTNPADY) [compound 80]
[B] 26 (LLGGGSLRFNP) [compound 26]
Qu. Problem: Given the entries A and B , determine which has the lower reported relative signal [%]. Record your answer as the label of the chosen record.
Ans. A

[a] 65 (GNPADYGGI) [compound 65]
[b] 22 (NPADYPG) [compound 22]
[c] 34 (WNPADYGHI) [compound 34]
Qu. Arrange items by their relative signal [%] values in increasing order. List the labels, following the order given in the request.
Ans. a, c, b
(a: 8.9%, c: 13.7%, b: 19.8%)

[I] 67 (WNPDDYGHV) [compound 67]
[II] 19 (WNPADYP) [compound 19]
Qu. Thinking about recorded relative signal [%] values, which is higher, I or II ? Use the label to indicate which entry you chose.
Ans. II
